System: NCI/ADR-RES ovarian
Assay: NCI tumour cell line growth inhibition, 48 h; in the data active = GI50 below about 0.43 µM; inactive = the rest
Answer with one of the outcomes given here: active, inactive

Worked examples, 2 compounds total:
Query: For O=C(Nc1cccc(-n2cc(-c3ccncc3)c(-c3cc(O)cc(Cl)c3)n2)c1)Nc1ccc(Cl)c(Cl)c1 , which call appears in the assay record?
Result: inactive

Query: Now this one: Cn1c(=O)c(Sc2ccccc2F)cc2cnc(NC3CCOCC3)nc21
Result: inactive

Continuing:
Query: Could you kindly confirm the outcome this assay logged for S=C(Nc1ccc(-c2nc3ccccc3s2)cc1)Nc1ccccn1 ?
Result: inactive

Query: Repeat for the following compound: CCCCC(SC(=S)N(CC)CC)C(=O)Nc1nc(CC(=O)OCC)cs1 (stereo not given)
Result: inactive

Query: Again, but for COC(=O)C1=C(C(=O)Nc2cccnc2)C2OC1(C(Cc1ccccc1)Oc1ccccc1)C1OC21 (stereo not given)
Result: inactive

Query: Continue with CN(C)c1cc2c(Nc3ccc4nc(Cc5ccccc5)[nH]c4c3)ncnc2cn1
Result: inactive

Query: Next compound up: CCCCCCCCCCCCCCCCCC(=O)[O][Sn]([CH2]CCC)([CH2]CCC)[CH2]CCC
Result: active
